Experiment: chemical genetic growth profiling, strain panel (AID 1159580);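 note: tested at 20 µM; growth read once vehicle control cultures reached saturation at 30 °C; 1 = growth at the plate median or of vehicle wells; lower values mean less growth of the strain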
Conditions: S. cerevisiae deletion strains, growth OD, locus YIL147C, strain SLN1, active compounds read low
The whole screen tested about 5,500 compounds, of which about 2,000 (36%) were called active. Roughly 18% stayed inconclusive and do not appear here. This is one part of the list.
Consider the following compounds and their measured normalized growth readings.
QUANTITY MEASURED: normalized growth

{"MOL SMILES": "CC(C)c1ccc(-c2cc(=O)c3ccccc3o2)cc1", "QUANTITY MEASURED": "normalized growth", "VALUE MEASURED": "0.932 (inactive)"}
{"MOL SMILES": "Cc1ccc(C(O)(c2ccccc2)c2ccccc2)c2ccccc12", "QUANTITY MEASURED": "normalized growth", "VALUE MEASURED": "0.993 (inactive)"}
{"MOL SMILES": "Cc1ccc2c(c1)CCCN2CC(=O)N(c1ccccc1)C1CCCCC1", "QUANTITY MEASURED": "normalized growth", "VALUE MEASURED": "0.991 (inactive)"}
{"MOL SMILES": "O=C(NNC(=O)c1csc(-c2cccs2)n1)c1ccc(C(F)(F)F)cc1", "QUANTITY MEASURED": "normalized growth", "VALUE MEASURED": "0.973 (inactive)"}
{"MOL SMILES": "Fc1ccc(N/N=C\\Cc2nnnn2-c2ccccc2)c(F)c1", "QUANTITY MEASURED": "normalized growth", "VALUE MEASURED": "0.958 (inactive)"}
{"MOL SMILES": "O=C1Nc2ccccc2/C1=N/N=C\\c1cc(Br)cc(Br)c1O", "QUANTITY MEASURED": "normalized growth", "VALUE MEASURED": "0.948 (inactive)"}
{"MOL SMILES": "C#Cc1cccc(N=Cc2cc(Cl)cc(Br)c2O)c1", "QUANTITY MEASURED": "normalized growth", "VALUE MEASURED": "0.112 (active)"}
{"MOL SMILES": "CC(C)(C)c1cc2nc(C(F)(F)F)cc(NNC(=O)c3ccc(Cl)cc3)n2n1", "QUANTITY MEASURED": "normalized growth", "VALUE MEASURED": "0.983 (inactive)"}
{"MOL SMILES": "CC(C)(C)c1csc(NC(=O)Nc2ccc(Cl)cc2)n1", "QUANTITY MEASURED": "normalized growth", "VALUE MEASURED": "0.972 (inactive)"}
{"MOL SMILES": "O=C(NCc1cccs1)c1csc(Cc2c(Cl)cccc2Cl)n1", "QUANTITY MEASURED": "normalized growth", "VALUE MEASURED": "0.985 (inactive)"}
{"MOL SMILES": "CC(C)(C)c1csc(NNC(=O)c2ccc(Cl)cc2)n1", "QUANTITY MEASURED": "normalized growth", "VALUE MEASURED": "0.984 (inactive)"}

----------
Assay: chemical genetic growth profiling, strain panel (AID 1159580);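 note: tested at 20 µM; growth read once vehicle control cultures reached saturation at 30 °C; 1 = growth at the plate median or of vehicle wells; lower values mean less growth of the strain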
Conditions: S. cerevisiae deletion strains, growth OD, locus YNL161W, strain CBK1
The campaign covered roughly 5,500 compounds. About 2,000 (36%) were called active. Roughly 18% stayed inconclusive and do not appear here. Rule as the data show it: active = normalized growth mostly below about 0.91 (no sharp cut-off); inconclusive = no clear call, values can overlap the other calls; inactive = mostly above about 0.92. The list shows a part of the results.
Classes used: active, inactive

{"COMPOUND": "O=C(NCc1cccs1)c1csc(Cc2c(Cl)cccc2Cl)n1", "ASSIGNED CLASS": "inactive"}
{"COMPOUND": "Clc1ccccc1N/N=C\\Cc1nnnn1-c1ccccc1", "ASSIGNED CLASS": "inactive"}
{"COMPOUND": "CC(C)(C)c1csc(NC(=O)c2ccc(Cl)cc2Cl)n1", "ASSIGNED CLASS": "inactive"}
{"COMPOUND": "N=c1ccc2nc3c(Cl)c4c(c(Cl)c3oc-2c1S(=O)(=O)O)Nc1ccc(N)c(S(=O)(=O)O)c1O4", "ASSIGNED CLASS": "inactive"}
{"COMPOUND": "CC(O)(CNCc1ccc(Cl)cc1)CSc1ccccc1Cl (configuration not stated)", "ASSIGNED CLASS": "inactive"}
{"COMPOUND": "N/C(CSc1ncccc1C(F)(F)F)=N/OC(=O)Nc1cccc(Cl)c1", "ASSIGNED CLASS": "inactive"}
{"COMPOUND": "CC(C)c1ccc(-c2cc(=O)c3ccccc3o2)cc1", "ASSIGNED CLASS": "inactive"}
{"COMPOUND": "Cc1cc(C(=O)N(c2ccccc2)C(C)C2CC2)c(Cl)cc1Cl (configuration not stated)", "ASSIGNED CLASS": "inactive"}
{"COMPOUND": "CC(C)CSc1nnc(CSCc2nc(-c3ccc(Cl)cc3)cs2)n1C", "ASSIGNED CLASS": "inactive"}
{"COMPOUND": "CCn1nc(C)cc1-c1nnc(Sc2ncc([N+](=O)[O-])s2)n1C", "ASSIGNED CLASS": "inactive"}
{"COMPOUND": "CN(C(=O)N(C)c1ccc(Cl)cc1C(=O)c1ccccc1Cl)c1ccc(Cl)cc1C(=O)c1ccccc1Cl", "ASSIGNED CLASS": "active"}
{"COMPOUND": "N#Cc1c(Br)cnn1Cc1cc(C(F)(F)F)cc(C(F)(F)F)c1", "ASSIGNED CLASS": "inactive"}
{"COMPOUND": "Cc1ccc(C(=O)O/N=C(/N)CSc2ncccc2C(F)(F)F)cc1", "ASSIGNED CLASS": "inactive"}
{"COMPOUND": "CCCc1cnc(N2CCN(CC(=O)N(c3ccccc3)C3CCCCC3)CC2)nc1", "ASSIGNED CLASS": "inactive"}
{"COMPOUND": "O=C1Nc2ccccc2/C1=N/N=C\\c1ccccc1Cl", "ASSIGNED CLASS": "inactive"}
{"COMPOUND": "CC(C)(C)c1csc(NC(=O)Nc2ccc(Cl)cc2)n1", "ASSIGNED CLASS": "inactive"}
{"COMPOUND": "O=C(CSCc1nc(-c2ccc(Cl)cc2)cs1)N/N=C\\c1cccs1", "ASSIGNED CLASS": "inactive"}
{"COMPOUND": "Cc1cc(C(=O)O/N=C(/N)CSc2ncccc2C(F)(F)F)no1", "ASSIGNED CLASS": "inactive"}
{"COMPOUND": "CC(C)(C)c1cc2nc(C(F)(F)F)cc(NNC(=O)c3ccc(Cl)cc3)n2n1", "ASSIGNED CLASS": "inactive"}
{"COMPOUND": "O=C1c2ccccc2O[C@@H](c2ccccc2)[C@@H]1NCc1ccccc1", "ASSIGNED CLASS": "inactive"}
{"COMPOUND": "Cc1ccc(C(O)(c2ccccc2)c2ccccc2)c2ccccc12", "ASSIGNED CLASS": "inactive"}
{"COMPOUND": "O=C(NNC(=O)c1csc(-c2cccs2)n1)c1ccc(C(F)(F)F)cc1", "ASSIGNED CLASS": "inactive"}
